- Tested on: biotinyl-Trp-oxazolone
- experiment: self-aminoacylation, catalytic enhancement (BWO) (fold over background); higher = more active; k-Seq, kA / k0A0; sequences stand for … in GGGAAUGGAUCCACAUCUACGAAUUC…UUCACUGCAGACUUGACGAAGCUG
This sample holds only a part of the variants without activity.
self-aminoacylation values, listed per item
// response body must contain only the number

As a guide, the following entries are already answered.
CCACACUUCACGCCAUCGGUC [Fam1B.1 aminoacylation ribozyme variant]	2.05
AUUACCCUGGUGCUCGAGUGA [Fam2.1 aminoacylation ribozyme variant]	5.2
AAGUUCGCUAAUAGUGGCAAG [Fam3.1 aminoacylation ribozyme variant]	0.444
AAUUUUGCUAAUAGUCGCAUG [Fam3.1 aminoacylation ribozyme variant]	3.4
AUUACCCUGGUCAACUAGUGA [Fam2.1 aminoacylation ribozyme variant]	9.81

Challenge: Tell me measured self-aminoacylation for CGACGUCAAACAAUCGGUCUG [Fam1A.1 aminoacylation ribozyme variant] please.
Response given: 1.82

Challenge: Dear colleague, please send me the reported self-aminoacylation for AUUCAGCUAGGUCAUCGAGUG [Fam2.2 aminoacylation ribozyme variant] when you can.
Response given: 1.98

Challenge: Specify self-aminoacylation for CUACUUCAUACAAUUGGUCUG [Fam1A.1 aminoacylation ribozyme variant] and stop.
Response given: 0.453

Challenge: Return reported self-aminoacylation. Input sequence: AAGUUUGCAAAUAGUCGCCAG [Fam3.1 aminoacylation ribozyme variant]
Response given: 2.05

* * *

- Test system: biotinyl-Val-oxazolone
- experiment: self-aminoacylation, catalytic enhancement (BVO) (fold over background); higher = more active; k-Seq, kA / k0A0; sequences stand for … in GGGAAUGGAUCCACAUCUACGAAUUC…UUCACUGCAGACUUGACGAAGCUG
This sample holds only a part of the variants without activity.
self-aminoacylation values, listed per item

CUUCACCUAGGUCAUCGGCUG [Fam2.2 aminoacylation ribozyme variant]	2.27
AUUAACCUGGUCAUCGGGUGA [Fam2.1 aminoacylation ribozyme variant]	4.72
CCACACUUCAACCAAUCAGUC [Fam1B.1 aminoacylation ribozyme variant]	1.04
AUCCACCGAGGUCAUCGGGUG [Fam2.2 aminoacylation ribozyme variant]	6.67
AUUUACCGAGGUCAUCGGGUG [Fam2.2 aminoacylation ribozyme variant]	4.5

Kindly consider the entry below.
Challenge: State its self-aminoacylation: AUUACCCUGGUUAUCGAGUGA [Fam2.1 aminoacylation ribozyme variant]
Response given: 4.27

* * *

Reported self-aminoacylation values for a set of sequences
- System: biotinyl-Trp-oxazolone
- experiment: self-aminoacylation, catalytic enhancement (BWO) (fold over background); higher = more active; k-Seq, kA / k0A0; sequences stand for … in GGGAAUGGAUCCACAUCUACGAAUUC…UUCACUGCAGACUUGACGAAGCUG
Variants at the floor of the assay were thinned out.

AUUAACCUGGACAUCGAGUGA [Fam2.1 aminoacylation ribozyme variant]	8.58
AUUCCCUUGGUCAUCGAGUGA [Fam2.1 aminoacylation ribozyme variant]	14.7
CCAGACUUCAGGCAAUCGGUC [Fam1B.1 aminoacylation ribozyme variant]	1.83
CUUCUUCAAACAAUCGGUCUG [Fam1A.1 aminoacylation ribozyme variant]	17.6
AGGUUUGCUACUAGUCGCAAG [Fam3.1 aminoacylation ribozyme variant]	1.77
CUACAUCAAACACUCGGUCUG [Fam1A.1 aminoacylation ribozyme variant]	1.11

Challenge: Please indicate self-aminoacylation recorded for CCACACUUCAAGAAAUCGGUU [Fam1B.1 aminoacylation ribozyme variant]
Response given: 2.03

Challenge: Specify measured self-aminoacylation for CUACGUGAAACAAUCGGUCUG [Fam1A.1 aminoacylation ribozyme variant] .
Response given: 2.03

Challenge: Consider the sequence AAGGUUGCUAAUGGUCGCAAG [Fam3.1 aminoacylation ribozyme variant] and give its recorded self-aminoacylation.
Response given: 0.994
